So I've got pIC50 readings for UniProt P41240, take a look.
The meaning of pIC50 here: minus log10 of the concentration in molar units.

q: // output pIC50; input CNc1nccc(-c2sc(N(C)C)nc2-c2cccc(NS(=O)(=O)c3c(F)ccc(C)c3F)c2F)n1 [Compound 180] ; system UniProt P41240
a: 7.89

q: // output pIC50; input Cn1c(-c2ccccc2)nc(-c2cccc(NS(=O)(=O)c3c(F)cccc3F)c2F)c1-c1ccnc(N)n1 [Compound 87] ; system UniProt P41240
a: 6.02

q: // output pIC50; input CN(C)c1ccn2c(-c3ccnc(N)n3)c(-c3cccc(NS(=O)(=O)c4c(F)cccc4F)c3F)nc2c1 [Compound 95] ; system UniProt P41240
a: 7.15

q: // output pIC50; input COc1ccn2c(-c3ccnc(N)n3)c(-c3cccc(NS(=O)(=O)c4c(F)ccc(C)c4F)c3F)nc2c1 [Compound 99] ; system UniProt P41240
a: 6.98

q: // output pIC50; input Nc1nccc(-c2sc(-c3ccc(=O)[nH]c3)nc2-c2cccc(NS(=O)(=O)c3c(F)cccc3F)c2F)n1 [compound 28] ; system UniProt P41240
a: 7.20

More entries:
q: // output pIC50; input Cc1cncc(-c2nc(-c3cccc(NS(=O)(=O)c4c(F)cccc4F)c3F)c(-c3ccnc(N)n3)s2)c1 [Compound 47] ; system UniProt P41240
a: 7.53

q: // output pIC50; input NC(=O)c1ccn2c(-c3ccnc(N)n3)c(-c3cccc(NS(=O)(=O)c4c(F)cccc4F)c3F)nc2c1 [Compound 94] ; system UniProt P41240
a: 7.01

* * *

# target-of-assay: CSK protein (Homo sapiens (Human), UniProt P41240)
# Sequence (P41240 whole entry): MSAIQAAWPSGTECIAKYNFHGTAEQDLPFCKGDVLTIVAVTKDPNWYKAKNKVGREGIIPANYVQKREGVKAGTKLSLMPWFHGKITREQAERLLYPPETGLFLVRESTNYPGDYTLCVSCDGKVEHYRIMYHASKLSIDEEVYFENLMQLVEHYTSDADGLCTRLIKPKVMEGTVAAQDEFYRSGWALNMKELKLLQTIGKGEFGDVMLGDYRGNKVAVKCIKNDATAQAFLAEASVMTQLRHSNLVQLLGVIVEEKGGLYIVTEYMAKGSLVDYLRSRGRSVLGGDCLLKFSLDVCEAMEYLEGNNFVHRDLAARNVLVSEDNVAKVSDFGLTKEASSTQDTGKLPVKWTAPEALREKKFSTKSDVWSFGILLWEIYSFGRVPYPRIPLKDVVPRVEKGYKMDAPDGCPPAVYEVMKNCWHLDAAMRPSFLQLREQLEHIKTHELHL
# IC50 listing for each entry below
Please respond with the number in nM and leave the unit unwritten.

q: Consider the compound CNc1nccc(-c2sc(C(C)(C)C)nc2-c2cccc(NS(=O)(=O)c3c(F)cccc3F)c2F)n1 [Compound 117] and give its recorded IC50.
a: 81.5

More entries:
q: Consider the compound O=S(=O)(Nc1cccc(-c2nc(-c3ccccc3)sc2-c2ccnc(Nc3cncnc3)n2)c1F)c1c(F)cccc1F [compound 38] and give its recorded IC50.
a: 14.9

q: Consider the compound Nc1nccc(-c2sc(-c3ccc(F)cn3)nc2-c2cccc(NS(=O)(=O)c3c(Cl)cccc3Cl)c2F)n1 [Compound 132] and give its recorded IC50.
a: 62

q: Consider the compound COC(=O)N[C@@H](C)CNc1nccc(-c2sc(-c3ccccc3)nc2-c2cccc(NS(=O)(=O)c3c(F)cccc3F)c2F)n1 [Compound 16] and give its recorded IC50.
a: 63.6

q: Consider the compound CNc1nccc(-c2sc(-c3ccc(C)nn3)nc2-c2cccc(NS(=O)(=O)c3c(F)ccc(C)c3F)c2F)n1 [Compound 65] and give its recorded IC50.
a: 14.9

q: Consider the compound O=S(=O)(Nc1cccc(-c2nc(-c3cncc(F)c3)sc2-c2ccnc(NC3CC3)n2)c1F)c1c(F)ccc(Cl)c1F [Compound 171] and give its recorded IC50.
a: 5.6

q: Consider the compound CC(C)c1nc(-c2cccc(NS(=O)(=O)c3c(F)cccc3F)c2F)c(-c2ccnc(Nc3ccccc3)n2)s1 [Compound 120] and give its recorded IC50.
a: 20.6

* * *

# target-of-assay: CSK protein (Homo sapiens (Human), UniProt P41240)
recorded-metric: pIC50
The meaning of pIC50 here: minus log10 of the concentration in molar units.

q: // output pIC50; input CC(C)Nc1nccc(-c2sc(-c3cncc(F)c3)nc2-c2cccc(NS(=O)(=O)c3c(F)cccc3F)c2F)n1 ; system CSK protein (Homo sapiens (Human), UniProt P41240)
a: 7.93

q: // output pIC50; input Cc1ncc(-c2nc(-c3cccc(NS(=O)(=O)c4c(Cl)cccc4Cl)c3F)c(-c3ccnc(NCCO)n3)s2)cn1 ; system CSK protein (Homo sapiens (Human), UniProt P41240)
a: 8.09

q: // output pIC50; input COc1cc(N2CCOCC2)ccc1Nc1nccc(-c2sc(-c3ccccc3)nc2-c2cccc(NS(=O)(=O)c3c(F)cccc3F)c2F)n1 ; system CSK protein (Homo sapiens (Human), UniProt P41240)
a: 7.30

More entries:
q: // output pIC50; input COc1ccc(-c2nc(-c3cccc(NS(=O)(=O)c4c(F)cccc4F)c3F)c(-c3ccnc(N)n3)s2)cc1 ; system CSK protein (Homo sapiens (Human), UniProt P41240)
a: 7.20

* * *

# target-of-assay: CSK protein (Homo sapiens (Human))
# pIC50 listing for each entry below
The meaning of pIC50 here: minus log10 of the concentration in molar units.

q: Consider the molecule CCn1c(-c2ccccc2)nc(-c2ccnc(N)n2)c1-c1cccc(NS(=O)(=O)c2c(F)cccc2F)c1F and give its recorded pIC50.
a: 6.49

q: Consider the molecule COc1ccn2c(-c3ccnc(NC4CC4)n3)c(-c3cccc(NS(=O)(=O)c4c(Cl)ccc(C)c4Cl)c3F)nc2c1 and give its recorded pIC50.
a: 6.95

q: Consider the molecule Nc1nccc(-c2sc(-c3cncc(C4CC4)c3)nc2-c2cccc(NS(=O)(=O)c3c(F)cccc3F)c2F)n1 and give its recorded pIC50.
a: 7.12

q: Consider the molecule CNc1nccc(-c2sc(-c3ccc(F)cn3)nc2-c2cccc(NS(=O)(=O)c3c(Cl)ccc(C)c3Cl)c2F)n1 and give its recorded pIC50.
a: 7.52

q: Consider the molecule Nc1nccc(-c2c(-c3cccc(NS(=O)(=O)c4c(F)cccc4F)c3F)nc3cc(C(=O)O)ccn23)n1 and give its recorded pIC50.
a: 6.90

More entries:
q: Consider the molecule C[C@H](Nc1nccc(-c2sc(-c3ccccc3)nc2-c2cccc(NS(=O)(=O)c3c(F)cccc3F)c2F)n1)C(N)=O and give its recorded pIC50.
a: 7.36

q: Consider the molecule CCc1ccn2c(-c3ccnc(N)n3)c(-c3cccc(NS(=O)(=O)c4c(F)cccc4F)c3F)nc2c1 and give its recorded pIC50.
a: 7.05

* * *

So I've got pIC50 readings for CSK protein (Homo sapiens (Human), UniProt P41240), take a look.
The meaning of pIC50 here: minus log10 of the concentration in molar units.

// known answers, use as guide
q: // output pIC50; input Nc1nccc(-c2c(-c3cccc(NS(=O)(=O)c4c(F)cccc4F)c3F)nc3ccccn23)n1 [compound 90] ; system CSK protein (Homo sapiens (Human), UniProt P41240)
a: 7.11

q: // output pIC50; input CNc1nccc(-c2sc(-c3cncc(F)c3)nc2-c2cc(OC)cc(NS(=O)(=O)c3c(F)cccc3F)c2F)n1 [Compound 72] ; system CSK protein (Homo sapiens (Human), UniProt P41240)
a: 7.58

q: // output pIC50; input CNc1nccc(-c2sc(-c3ccccc3)nc2-c2cccc(NS(=O)(=O)c3c(F)cccc3F)c2F)n1 [Compound 46] ; system CSK protein (Homo sapiens (Human), UniProt P41240)
a: 7.56

Kindly consider the entry below.
q: // output pIC50; input CN(C)c1nc(-c2cccc(NS(=O)(=O)c3c(F)ccc(Cl)c3F)c2F)c(-c2ccnc(NC3CC3)n2)s1 [Compound 187] ; system CSK protein (Homo sapiens (Human), UniProt P41240)
a: 8.14

* * *

So I've got pIC50 readings for CSK protein (Homo sapiens (Human)), take a look.
The meaning of pIC50 here: minus log10 of the concentration in molar units.

q: Consider the compound CNc1nccc(-c2sc(N3CCC(F)(F)C3)nc2-c2cccc(NS(=O)(=O)c3c(F)cccc3F)c2F)n1 [Compound 162] and give its recorded pIC50.
a: 8.19

q: Consider the compound Cc1ccc(Cl)c(S(=O)(=O)Nc2cccc(-c3nc(-c4cncc(F)c4)sc3-c3ccnc(NCCO)n3)c2F)c1Cl [Compound 138] and give its recorded pIC50.
a: 8.07

* * *

So I've got IC50 readings for CSK protein (Homo sapiens (Human), UniProt P41240), take a look.
Please respond with the number in µM and leave the unit unwritten.

// known answers, use as guide
q: // output IC50; input Nc1nccc(-c2sc(-c3ccc(F)cc3)nc2-c2cccc(NS(=O)(=O)c3c(F)cccc3F)c2F)n1 ; system CSK protein (Homo sapiens (Human), UniProt P41240)
a: 0.0553

q: // output IC50; input Cc1ccc(-c2nc(-c3cccc(NS(=O)(=O)c4c(F)cccc4F)c3F)c(-c3ccnc(N)n3)s2)nn1 ; system CSK protein (Homo sapiens (Human), UniProt P41240)
a: 0.051

q: // output IC50; input CN1CCN(c2ccc(Nc3nccc(-c4sc(C(C)(C)C)nc4-c4cccc(NS(=O)(=O)c5c(F)cccc5F)c4F)n3)cn2)CC1 ; system CSK protein (Homo sapiens (Human), UniProt P41240)
a: 0.0037

q: // output IC50; input CNc1nccc(-c2sc(-c3ccc(F)cn3)nc2-c2cccc(NS(=O)(=O)c3c(F)ccc(Cl)c3F)c2F)n1 ; system CSK protein (Homo sapiens (Human), UniProt P41240)
a: 0.0315

Kindly consider the entry below.
q: // output IC50; input Nc1nccc(-c2c(-c3cccc(NS(=O)(=O)c4c(F)cccc4F)c3F)nc3cc(C(F)(F)F)ccn23)n1 ; system CSK protein (Homo sapiens (Human), UniProt P41240)
a: 0.4
